# Measurement Notes: Intrinsic clearance in rat hepatocytes assessed per 10^6 cells
Please provide measured hepatocyte CLint for the entries that follow.
Expressed in µL/min/1e6 cells, but write only the number.

## Input # lookup: hepatocyte CLint of CC1(c2c(C(=O)NC3C4CC5CC(C4)CC3C5)cnn2-c2ccc(C(=O)O)cc2)CC1 (stereo not given)
## Output 11

## Input Record request: hepatocyte CLint value, item O=C(O)c1ccc(-n2ncc(C(=O)NC3C4CC5CC(C4)CC3C5)c2SC2CCCCC2)cc1 (stereo not given)
## Output 9.4

## Input // returns reported hepatocyte CLint for input O=C(O)c1ccc(-n2ncc(C(=O)NC3C4CC5CC(C4)CC3C5)c2SC2CCCC2)cc1 (stereo not given)
## Output 14

## Input Looking for the measured hepatocyte CLint of O=C(O)c1ccc(-n2cc(C(=O)NC3C4CC5CC(C4)CC3C5)cn2)cc1 (stereo not given) , can you help?
## Output 6.6

## Input Look up hepatocyte CLint for this molecule: CCCSc1c(C(=O)N(C)C2CCCCC2)cnn1-c1ccc(C(=O)O)cc1
## Output 26
